The reported numbers originate from patent US20210032351A1.

Biological target: T1, human EGFRvIII protein on the cell surface (human, UniProt P00533 25-1210)
T1 construct: whole, on cells; the cell line is named under assay; also called hEGFRvIII; U87MG-hEGFRvIII
Experiment: FACS on U87MG-EGFRvIII cells
experimental_readout: Maximum mean fluorescence intensity (MFI)
One number for each entry, in MFI.

Solved entries (count: 2):
>  <binder>
Humanized antibody h75G7C6-14 (antibody, human IgG1, V domains shown, also called VH-g2/VL-g1) VH: QVQLVQSGAEVKKPGASVKVSCKASGYTFTDYNMDWVKQAPGQGLEWIGDINPNNADTIYNQKFKGRVTLTVDKSTSTVYMELSSLRSEDTAVYYCARGDYDGYYPVYYAMDYWGQGTTVTVSS VL: ENVLTQSPATLSLSPGERATLSCRASSSVSSSYLHWYQQKPGQAPRLLIFSTSNLAAGIPARFSGSGSGTDYTLTISSLEPEDFAVYYCQQYSGYPLTFGGGTKVEIK

>  <unit_symbol>
MFI

>  <observed_value>
18500

$$$$
>  <binder>
Humanized antibody h63A10A7-38 (antibody, human IgG1, V domains shown, also called VH-g7/VL-g3) VH: QVQLVQSGAEVKKPGASVKVSCKASGYTFISFTMHWVRQAPGQGLEWIGYINPNSGYTKYNQKFKDKATLTRDTSTSTVYMELSSLRSEDTAVYYCTRGGGRGFAYWGQGTLVTVSS VL: DIQMTQSPSSLSASVGDRVTITCHASQDINSNIGWLQQKPGKSFKALIYHGTNLEDGVPSRFSGSGSGADYTLTISSLQPEDFATYYCVQYAQFPFTFGQGTKLEIK

>  <unit_symbol>
MFI

>  <observed_value>
10700

$$$$

Go through the items and report each one's Maximum mean fluorescence intensity.
1. Humanized antibody h63A10A7-24 (antibody, human IgG1, V domains shown, also called VH-g4/VL-g6) VH: QVQLVQSGAEVKKPGASVKVSCKASGYTFISFTMHWVKQRPGQGLEWIGYINPNSGYTKYNQKFKDKATLTRDTSTSTVYMELSSLRSEDTAVYYCTRGGGRGFAYWGQGTLVTVSS VL: DILMTQSPSSLSASVGDRVTITCHASQDINSNIGWLQQKPGKSFKALIYHGTNLEDGVPSRFSGSGSGTDYTLTISSLQPEDFATYYCVQYAQFPFTFGQGTKLEIK
2. Humanized antibody h75G7C6-9 (antibody, human IgG1, V domains shown, also called VH-g1/VL-g0) VH: QVQLVQSGAEVKKPGASVKVSCKASGYTFTDYNMDWVRQAPGQGLEWIGDINPNNADTIYNQKFKGRVTLTVDTSTSTVYMELSSLRSEDTAVYYCARGDYDGYYPVYYAMDYWGQGTTVTVSS VL: EIVLTQSPATLSLSPGERATLSCRASSSVSSSYLHWYQQKPGQAPRLLIYSTSNLAAGIPARFSGSGSGTDFTLTISSLEPEDFAVYYCQQYSGYPLTFGGGTKVEIK
3. Humanized antibody h75G7C6-15 (antibody, human IgG1, V domains shown, also called VH-g2/VL-g2) VH: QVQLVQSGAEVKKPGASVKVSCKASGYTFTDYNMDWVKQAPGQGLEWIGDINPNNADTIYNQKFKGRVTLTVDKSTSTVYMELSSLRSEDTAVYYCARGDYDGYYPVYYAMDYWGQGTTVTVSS VL: ENVLTQSPATLSLSPGERATLSCRASSSVSSSYLHWYQQKPGQSPRLLIFSTSNLAAGIPARFSGSGSGTDYTLTISSLEPEDFAVYYCQQYSGYPLTFGGGTKVEIK

Ans:
24200
18200
18900
